Target: mouse SMO^W535L (Mus musculus, UniProt P56726, W539L)
Construct: expressed in transfected cells
Sequence (P56726 33-793 W539L): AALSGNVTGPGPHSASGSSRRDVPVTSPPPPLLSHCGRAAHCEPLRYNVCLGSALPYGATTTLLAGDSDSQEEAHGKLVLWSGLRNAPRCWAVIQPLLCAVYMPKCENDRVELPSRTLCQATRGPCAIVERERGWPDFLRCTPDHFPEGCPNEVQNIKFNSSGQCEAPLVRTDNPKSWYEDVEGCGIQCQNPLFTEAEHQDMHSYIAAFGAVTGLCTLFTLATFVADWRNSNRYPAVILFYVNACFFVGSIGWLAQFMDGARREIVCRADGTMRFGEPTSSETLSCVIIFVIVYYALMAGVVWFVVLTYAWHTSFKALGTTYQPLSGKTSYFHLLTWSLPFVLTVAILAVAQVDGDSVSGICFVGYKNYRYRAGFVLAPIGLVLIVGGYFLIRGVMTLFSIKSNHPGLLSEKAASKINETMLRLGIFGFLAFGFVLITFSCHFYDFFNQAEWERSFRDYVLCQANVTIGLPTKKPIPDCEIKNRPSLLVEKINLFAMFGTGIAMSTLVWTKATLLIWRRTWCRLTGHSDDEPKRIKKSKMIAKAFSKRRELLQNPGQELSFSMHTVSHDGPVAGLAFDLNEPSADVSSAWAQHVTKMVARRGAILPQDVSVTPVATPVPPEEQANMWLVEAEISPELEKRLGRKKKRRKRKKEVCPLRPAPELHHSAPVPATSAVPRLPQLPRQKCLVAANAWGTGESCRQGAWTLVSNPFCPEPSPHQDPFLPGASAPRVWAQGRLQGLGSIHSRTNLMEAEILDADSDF
Assay: Mouse assay: Gli1 qPCR in MEF cells stably expressing mouse SMO W535L; also: test concentration or dose not given here
Type: cell-based
Details: mSHh-treated, 24 hours, percentage Gli1 inhibition
measured_parameter: Mouse W535L % Inh

INSERT INTO results (compound, target_or_system, value_reported) VALUES
  ('Cl.O=C(Nc1ccc(-c2nc(C3CC3)no2)cc1)c1cccc(CN2CCS(=O)(=O)CC2)c1 [Example 4-11]', 'mouse SMO^W535L (Mus musculus, UniProt P56726, W539L)', '63.8%'),
  ('O=C(Nc1ccc(-c2nc(C3CCCCC3)n[nH]2)cc1)c1cccc(CN2CCS(=O)(=O)CC2)c1 [Example 3-6]', 'mouse SMO^W535L (Mus musculus, UniProt P56726, W539L)', '51.7%'),
  ('Cc1cc(Cc2n[nH]c(-c3ccc(NC(=O)c4cccc(CN5CCS(=O)(=O)CC5)c4)cc3)n2)ccc1Br [Example 3-27]', 'mouse SMO^W535L (Mus musculus, UniProt P56726, W539L)', '57.3%'),
  ('O=C(Nc1ccc(-c2cc(C3CC3)no2)cc1)c1cccc(CN2CCS(=O)(=O)CC2)c1 [Example 4-6]', 'mouse SMO^W535L (Mus musculus, UniProt P56726, W539L)', '76.9%'),
  ('O=C(Nc1ccc(-c2nc(-c3cccc(F)c3)n[nH]2)cc1)c1cccc(CN2CCS(=O)(=O)CC2)c1 [Example 3-10]', 'mouse SMO^W535L (Mus musculus, UniProt P56726, W539L)', '63.9%'),
  ('COc1ccc(Cc2n[nH]c(-c3ccc(NC(=O)c4cccc(CN5CCS(=O)(=O)CC5)c4)cc3)n2)cn1 [Example 3-30]', 'mouse SMO^W535L (Mus musculus, UniProt P56726, W539L)', '69.1%'),
  ('Cn1nc(-c2ccc(NC(=O)c3ccc(Cl)c(CN4CCS(=O)(=O)CC4)c3)cc2)cc1C1CC1 [Example 4-24]', 'mouse SMO^W535L (Mus musculus, UniProt P56726, W539L)', '70.0%'),
  ('CC1CN(Cc2cccc(C(=O)Nc3ccc(-c4nc(C5CC5)n[nH]4)cc3)c2)CCS1(=O)=O (stereo not shown) [Example 1-2]', 'mouse SMO^W535L (Mus musculus, UniProt P56726, W539L)', '63.3%'),
  ('Cc1ccc(Cc2n[nH]c(-c3ccc(NC(=O)c4cccc(CN5CCS(=O)(=O)CC5)c4)cc3)n2)cc1 [Example 3-18]', 'mouse SMO^W535L (Mus musculus, UniProt P56726, W539L)', '65.7%'),
  ('Cc1oc(-c2ccc(NC(=O)c3ccc(F)c(CN4CCS(=O)(=O)CC4)c3)cc2)nc1C1CC1 [Example 4-3]', 'mouse SMO^W535L (Mus musculus, UniProt P56726, W539L)', '71.9%');

* * *

Biological target: hSMO WT (Homo sapiens, UniProt Q99835)
Construct: expressed in transfected cells; host or cells: SMO knock-out mouse embryonic fibroblasts (MEF SMO-/-), BacMam transduction
Sequence (Q99835 28-787): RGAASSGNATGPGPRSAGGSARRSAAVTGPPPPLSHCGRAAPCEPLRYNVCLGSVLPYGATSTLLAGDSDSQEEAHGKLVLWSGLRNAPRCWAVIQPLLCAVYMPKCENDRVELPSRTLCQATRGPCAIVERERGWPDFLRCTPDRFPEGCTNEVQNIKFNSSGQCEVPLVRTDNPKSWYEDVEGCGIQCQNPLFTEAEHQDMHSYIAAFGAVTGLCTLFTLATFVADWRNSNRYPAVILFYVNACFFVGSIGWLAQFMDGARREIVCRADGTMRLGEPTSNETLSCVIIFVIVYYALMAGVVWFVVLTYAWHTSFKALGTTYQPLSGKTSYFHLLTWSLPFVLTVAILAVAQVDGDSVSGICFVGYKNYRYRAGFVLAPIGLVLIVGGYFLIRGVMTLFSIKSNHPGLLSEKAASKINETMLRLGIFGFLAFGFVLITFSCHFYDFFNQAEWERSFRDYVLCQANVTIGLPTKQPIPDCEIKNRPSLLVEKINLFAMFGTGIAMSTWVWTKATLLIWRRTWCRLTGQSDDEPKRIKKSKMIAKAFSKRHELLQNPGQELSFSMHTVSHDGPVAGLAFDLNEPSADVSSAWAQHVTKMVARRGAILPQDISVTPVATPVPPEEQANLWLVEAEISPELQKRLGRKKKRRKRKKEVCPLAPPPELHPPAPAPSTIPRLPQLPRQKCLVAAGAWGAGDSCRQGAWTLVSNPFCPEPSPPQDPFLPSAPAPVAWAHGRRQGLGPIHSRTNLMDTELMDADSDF
Assay: Human assay: Gli1 qPCR in MEF SMO-/- cells BacMam-transduced with hSMO WT
Format: cell-based
Conditions: mSHh-treated, 24 hours, Gli1 inhibition by qPCR, read-out: Human WT pIC50 (converted)
measured_parameter: IC50

INSERT INTO measurements (record_smiles, measured_parameter, value_reported) VALUES
  ('Cc1oc(-c2ccc(NC(=O)c3ccc(F)c(CN4CCS(=O)(=O)CC4)c3)cc2)nc1C1CC1', 'IC50', '0.316 nM'),
  ('O=C(Nc1ccc(-c2cc(C3CC3)n[nH]2)cc1)c1cccc(CN2CCS(=O)(=O)CC2)c1', 'IC50', '3.16 nM'),
  ('CC(C)c1noc(-c2ccc(NC(=O)c3cccc(CN4CCS(=O)(=O)CC4)c3)cc2)n1', 'IC50', '5.01 nM');

Every entry's value here was drawn from patent US20250136559A1.
